Molecular target: human Edg-1 (S1P1) (Homo sapiens, UniProt P21453)
Construct: expressed in transfected cells; host or cells: HEK-293
Sequence (P21453 whole entry): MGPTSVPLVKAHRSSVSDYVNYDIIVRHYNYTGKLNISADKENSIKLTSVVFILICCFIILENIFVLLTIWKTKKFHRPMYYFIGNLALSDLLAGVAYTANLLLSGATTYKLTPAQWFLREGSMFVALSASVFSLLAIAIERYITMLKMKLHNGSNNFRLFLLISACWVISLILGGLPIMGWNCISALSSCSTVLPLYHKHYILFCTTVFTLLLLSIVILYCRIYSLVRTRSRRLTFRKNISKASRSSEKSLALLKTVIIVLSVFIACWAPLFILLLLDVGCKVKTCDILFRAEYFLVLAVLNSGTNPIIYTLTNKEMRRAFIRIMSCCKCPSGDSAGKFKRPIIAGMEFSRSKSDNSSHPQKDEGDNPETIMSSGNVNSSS
Test: S1P1 binding assay: inhibition of [33P]-S1P binding to membrane fraction of HEK-293 cells transferred with the human Edg-1 (S1P1) gene
Settings: test compound at 10 μM; inhibition of [33P]-S1P binding to the membrane fraction of HEK-293 cells expressing human Edg-1 (S1P1)
OBSERVABLE: inhibition at 10 µM (%)

| CHEM SMILES | inhibition at 10 µM (%) |
| --- | --- |
| CCn1c(Oc2ccc(F)c(F)c2)nnc1[C@@H](C)NS(=O)(=O)c1ccc(Cl)c(Cl)c1 | 100 |

a: CCn1c(Oc2ccc(F)cc2)nnc1[C@@H](C)NS(=O)(=O)c1ccc(Br)cc1Cl
b: CCn1c(Oc2ccc(F)cc2)nnc1[C@@H](C)NS(=O)(=O)c1ccc(-c2csnn2)s1
Returns: the argument ( a or b ) having the larger inhibition at 10 µM. Pick one; state its label. a
